# Test system: Human immunodeficiency virus 1
# assayRemarks: Antiviral activity against HIV1 bearing protease gene with A17 mutation infected in human MT4 cells after 5 days by MTT assay
# Type: functional, organism-based
# conditionInfo: Human immunodeficiency virus 1, MT4, 120 h
pEC50: −log10 of the molar value.
Recorded measurements of pEC50, one per entry
propertyMeasured: pEC50

{"smilesText": "COC(=O)N[C@H](C(=O)NN(Cc1ccc(-c2ccccn2)cc1)C[C@H](O)[C@H](Cc1ccccc1)NC(=O)[C@@H](N1CCN(Cc2cccc(C)n2)C1=O)C(C)(C)C)C(C)(C)C", "recordedMeasurement": 7.77}
{"smilesText": "COC(=O)N[C@H](C(=O)N[C@@H](Cc1ccc(-c2ccccn2)cc1)C[C@H](O)[C@H](Cc1ccccc1)NC(=O)[C@@H](N1CCN(Cc2ccccc2C)C1=O)C(C)(C)C)C(C)(C)C", "recordedMeasurement": 7.14}
{"smilesText": "COC(=O)N[C@H](C(=O)N[C@H](Cc1ccc(-c2ccccn2)cc1)C[C@H](O)[C@H](Cc1ccccc1)NC(=O)[C@@H](N1CCN(Cc2cccc(C(C)C)n2)C1=O)C(C)(C)C)C(C)(C)C", "recordedMeasurement": 7.18}
{"smilesText": "COC(=O)N[C@H](C(=O)N[C@@H](Cc1ccc(-c2ccccn2)cc1)C[C@H](O)[C@H](Cc1ccccc1)NC(=O)[C@@H](N1CCN(Cc2ccnc3ccccc23)C1=O)C(C)(C)C)C(C)(C)C", "recordedMeasurement": 8.70}
{"smilesText": "COC(=O)N[C@H](C(=O)N[C@H](Cc1ccc(-c2ccccn2)cc1)C[C@H](O)[C@H](Cc1ccccc1)NC(=O)[C@@H](N1CCN(Cc2cccc(C(C)(C)C)n2)C1=O)C(C)(C)C)C(C)(C)C", "recordedMeasurement": 6.82}

---

# targetDesc: Cytochrome P450 2D6 (Homo sapiens)
# Sequence (P10635 whole entry): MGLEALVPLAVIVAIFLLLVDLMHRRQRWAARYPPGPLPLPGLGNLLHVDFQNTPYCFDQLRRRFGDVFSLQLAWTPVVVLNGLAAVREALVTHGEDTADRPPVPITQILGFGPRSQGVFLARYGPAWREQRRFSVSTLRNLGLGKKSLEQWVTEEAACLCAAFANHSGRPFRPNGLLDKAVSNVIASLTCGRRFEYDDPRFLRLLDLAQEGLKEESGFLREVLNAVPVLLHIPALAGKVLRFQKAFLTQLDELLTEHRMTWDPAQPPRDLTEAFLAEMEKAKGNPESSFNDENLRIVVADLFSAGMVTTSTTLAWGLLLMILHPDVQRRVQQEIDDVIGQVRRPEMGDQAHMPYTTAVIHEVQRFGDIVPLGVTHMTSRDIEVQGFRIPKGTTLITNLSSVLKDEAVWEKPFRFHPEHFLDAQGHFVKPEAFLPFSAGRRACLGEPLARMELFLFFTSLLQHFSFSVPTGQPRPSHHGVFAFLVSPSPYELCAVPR
pIC50: −log10 of the molar value.
Measured pIC50 of individual entries

{"smilesText": "COC(=O)N[C@H](C(=O)N[C@H](Cc1ccc(-c2ccccn2)cc1)C[C@H](O)[C@H](Cc1ccccc1)NC(=O)[C@@H](N1CCN(Cc2cccc(C(C)(C)O)n2)C1=O)C(C)(C)C)C(C)(C)C", "pIC50": "< 5.30"}
{"smilesText": "COC(=O)N[C@H](C(=O)N[C@@H](Cc1ccc(-c2ccccn2)cc1)C[C@H](O)[C@H](Cc1ccccc1)NC(=O)[C@@H](N1CCN(Cc2ccccc2)C1=O)C(C)(C)C)C(C)(C)C", "pIC50": "< 5.00"}

---

# assayRemarks: AUC in dog at 5 mg/kg, po coadministered with 5 mg/kg ritonavir
# Type: ADME, organism-based, Canis lupus familiaris
# conditionInfo: plasma
Overview of recorded AUC for various compounds

{"smilesText": "COC(=O)N[C@H](C(=O)N[C@@H](Cc1ccc(-c2ccccn2)cc1)C[C@H](O)[C@H](Cc1ccccc1)NC(=O)[C@@H](N1CCN(Cc2ccccc2)C1=O)C(C)(C)C)C(C)(C)C", "AUC": "41900 ng·h/mL"}
{"smilesText": "COC(=O)N[C@H](C(=O)N[C@H](Cc1ccc(-c2ccccn2)cc1)C[C@H](O)[C@H](Cc1ccccc1)NC(=O)[C@@H](N1CCN(Cc2cccc(C(C)(C)O)n2)C1=O)C(C)(C)C)C(C)(C)C", "AUC": "10600 ng·h/mL"}

---

# Tested on: Human immunodeficiency virus 1
# assayRemarks: Antiviral activity against HIV1 bearing protease gene with A17 mutation infected in human MT4 cells after 5 days by MTT assay
# Assay type: functional, organism-based
# conditionInfo: Human immunodeficiency virus 1, MT4, 120 h
pEC50: −log10 of the molar value.
Quick reference for pEC50 among some compounds

{"smilesText": "Cc1cccc(C)c1OCC(=O)N[C@@H](Cc1ccccc1)[C@@H](O)C[C@H](Cc1ccccc1)NC(=O)[C@H](C(C)C)N1CCCNC1=O", "targetDesc": "Human immunodeficiency virus 1", "pEC50": 5.98}
{"smilesText": "CC(C)CN(C[C@@H](O)[C@H](Cc1ccccc1)NC(=O)O[C@H]1CO[C@H]2OCC[C@H]21)S(=O)(=O)c1ccc(N)cc1", "targetDesc": "Human immunodeficiency virus 1", "pEC50": 6.47}
{"smilesText": "COC(=O)N[C@H](C(=O)N[C@@H](Cc1ccc(-c2ccccn2)cc1)[C@@H](O)C[C@H](Cc1ccccc1)NC(=O)[C@@H](N1CCN(Cc2cccc(C(C)(C)O)n2)C1=O)C(C)(C)C)C(C)(C)C", "targetDesc": "Human immunodeficiency virus 1", "pEC50": 8.70}
{"smilesText": "COC(=O)N[C@H](C(=O)N[C@@H](Cc1ccc(-c2ccccn2)cc1)[C@@H](O)C[C@H](Cc1ccccc1)NC(=O)[C@@H](N1CCN(Cc2nc3ccccc3n2C)C1=O)C(C)(C)C)C(C)(C)C", "targetDesc": "Human immunodeficiency virus 1", "pEC50": 8.52}
{"smilesText": "COC(=O)N[C@H](C(=O)N[C@@H](Cc1ccc(-c2ccccn2)cc1)C[C@H](O)[C@H](Cc1ccccc1)NC(=O)[C@@H](N1CCN(Cc2cccc(C)n2)C1=O)C(C)(C)C)C(C)(C)C", "targetDesc": "Human immunodeficiency virus 1", "pEC50": 7.82}
{"smilesText": "COC(=O)N[C@H](C(=O)N[C@@H](Cc1ccc(-c2ccccn2)cc1)C[C@H](O)[C@H](Cc1ccccc1)NC(=O)[C@@H](N1CCN(Cc2ccccc2)C1=O)C(C)(C)C)C(C)(C)C", "targetDesc": "Human immunodeficiency virus 1", "pEC50": 7.66}
{"smilesText": "COC(=O)N[C@H](C(=O)N[C@H](Cc1ccc(-c2ccccn2)cc1)C[C@H](O)[C@H](Cc1ccccc1)NC(=O)[C@@H](N1CCN(Cc2nc3ccccc3n2C)C1=O)C(C)(C)C)C(C)(C)C", "targetDesc": "Human immunodeficiency virus 1", "pEC50": 7.70}
{"smilesText": "COC(=O)N[C@H](C(=O)N[C@@H](Cc1ccc(-c2ccccn2)cc1)C[C@H](O)[C@H](Cc1ccccc1)NC(=O)[C@@H](N1CCN(Cc2cccc(C(C)(C)O)n2)C1=O)C(C)(C)C)C(C)(C)C", "targetDesc": "Human immunodeficiency virus 1", "pEC50": 8.40}
{"smilesText": "COC(=O)N[C@H](C(=O)N[C@@H](Cc1ccc(-c2ccccn2)cc1)C[C@H](O)[C@H](Cc1ccccc1)NC(=O)[C@@H](N1CCN(Cc2cccc(C)c2)C1=O)C(C)(C)C)C(C)(C)C", "targetDesc": "Human immunodeficiency virus 1", "pEC50": 7.39}
{"smilesText": "COC(=O)N[C@H](C(=O)N[C@@H](Cc1ccc(-c2ccccn2)cc1)[C@@H](O)C[C@H](Cc1ccccc1)NC(=O)[C@@H](N1CCN(Cc2ccccc2)C1=O)C(C)(C)C)C(C)(C)C", "targetDesc": "Human immunodeficiency virus 1", "pEC50": 8.40}
{"smilesText": "COC(=O)N[C@H](C(=O)N[C@H](Cc1ccc(-c2ccccn2)cc1)C[C@H](O)[C@H](Cc1ccccc1)NC(=O)[C@@H](N1CCN(Cc2ccnc3ccccc23)C1=O)C(C)(C)C)C(C)(C)C", "targetDesc": "Human immunodeficiency virus 1", "pEC50": 8.10}
{"smilesText": "COC(=O)N[C@H](C(=O)N[C@@H](Cc1ccc(-c2ccccn2)cc1)C[C@H](O)[C@H](Cc1ccccc1)NC(=O)[C@@H](N1CCN(Cc2ccccc2F)C1=O)C(C)(C)C)C(C)(C)C", "targetDesc": "Human immunodeficiency virus 1", "pEC50": 7.06}
{"smilesText": "COC(=O)N[C@H](C(=O)N[C@H](Cc1ccc(-c2ccccn2)cc1)C[C@H](O)[C@H](Cc1ccccc1)NC(=O)[C@@H](N1CCN(Cc2cccc(C(C)(C)O)n2)C1=O)C(C)(C)C)C(C)(C)C", "targetDesc": "Human immunodeficiency virus 1", "pEC50": 8.00}
{"smilesText": "COC(=O)N[C@H](C(=O)N[C@H](Cc1ccc(-c2ccccn2)cc1)C[C@H](O)[C@H](Cc1ccccc1)NC(=O)[C@@H](N1CCN(Cc2cccc(C)n2)C1=O)C(C)(C)C)C(C)(C)C", "targetDesc": "Human immunodeficiency virus 1", "pEC50": 7.68}
{"smilesText": "COC(=O)N[C@H](C(=O)N[C@@H](Cc1ccc(-c2ccccn2)cc1)C[C@H](O)[C@H](Cc1ccccc1)NC(=O)[C@@H](N1CCN(Cc2ccccc2N)C1=O)C(C)(C)C)C(C)(C)C", "targetDesc": "Human immunodeficiency virus 1", "pEC50": 7.68}
{"smilesText": "COC(=O)N[C@H](C(=O)N[C@@H](Cc1ccc(-c2ccccn2)cc1)C[C@H](O)[C@H](Cc1ccccc1)NC(=O)[C@@H](N1CCN(Cc2ccc(F)cc2)C1=O)C(C)(C)C)C(C)(C)C", "targetDesc": "Human immunodeficiency virus 1", "pEC50": 7.38}

---

# assayRemarks: Concentration of drug after 12 hrs in dog at 5 mg/kg, po coadministered with 5 mg/kg ritonavir
# Type: ADME, organism-based, Canis lupus familiaris
# conditionInfo: in vivo, read-out: Drug uptake
# concentration at 12 h per record follows

{"smilesText": "COC(=O)N[C@H](C(=O)N[C@H](Cc1ccc(-c2ccccn2)cc1)C[C@H](O)[C@H](Cc1ccccc1)NC(=O)[C@@H](N1CCN(Cc2cccc(C(C)(C)O)n2)C1=O)C(C)(C)C)C(C)(C)C", "concentration at 12 h [ng/mL]": 58}
{"smilesText": "COC(=O)N[C@H](C(=O)N[C@@H](Cc1ccc(-c2ccccn2)cc1)C[C@H](O)[C@H](Cc1ccccc1)NC(=O)[C@@H](N1CCN(Cc2ccccc2)C1=O)C(C)(C)C)C(C)(C)C", "concentration at 12 h [ng/mL]": 924}
